Each item that follows carries a reported pIC50.
# System: human prostate cancer (PC-3)
# assay comment: SRB cytotoxicity assay, PC-3
# Assay type: cell-based
# test context: PC-3 cells
Recall that pIC50 is obtained by taking minus log10 of the concentration measured in molar.

Query O=C(O)C1CCCN1C(=O)c1ccc(Nc2ncnc3c2cnn3-c2ccccc2)cc1 (stereo not shown) yields pIC50 of 4.95

Query O=C(O)CCC(NC(=O)c1ccc(Nc2ncnc3c2cnn3-c2ccccc2)cc1)C(=O)O (stereo not shown) yields pIC50 of 4.86

Query N=C(N)NCCCC(NC(=O)c1ccc(Nc2ncnc3c2cnn3-c2ccccc2)cc1)C(=O)O (stereo not shown) yields pIC50 of 5.20

Query O=C(O)CNC(=O)c1ccc(Nc2ncnc3c2cnn3-c2ccccc2)cc1 yields pIC50 of 4.64

Query O=C(c1ccc(Nc2ncnc3c2cnn3-c2ccccc2)cc1)n1nnc2ccccc21 yields pIC50 of 4.83

---
Query COc1cccc2c1C(=O)c1c(O)c3c(c(O)c1C2=O)C[C@@](O)(C(=O)CO)C[C@@H]3O[C@H]1C[C@H](N)[C@H](O)[C@H](C)O1 [Doxorubicin, reference compound] yields pIC50 of 5.05

Query CCC(C)C(NC(=O)c1ccc(Nc2ncnc3c2cnn3-c2ccccc2)cc1)C(=O)O (stereo not shown) yields pIC50 of 5.00

Query O=C(NC(Cc1ccccc1)C(=O)O)c1ccc(Nc2ncnc3c2cnn3-c2ccccc2)cc1 (stereo not shown) yields pIC50 of 5.00

Query O=C(NC(CS)C(=O)O)c1ccc(Nc2ncnc3c2cnn3-c2ccccc2)cc1 (stereo not shown) yields pIC50 of 4.88

Query CC(NC(=O)c1ccc(Nc2ncnc3c2cnn3-c2ccccc2)cc1)C(=O)O (stereo not shown) yields pIC50 of 4.47

Query O=C(NC(Cc1ccc(O)cc1)C(=O)O)c1ccc(Nc2ncnc3c2cnn3-c2ccccc2)cc1 (stereo not shown) yields pIC50 of 4.90

###

# system tested: human DHFR enzyme (Homo sapiens, UniProt P00374)
# Construct: purchased MyBioSource MBS9312476
# Sequence (P00374 whole entry): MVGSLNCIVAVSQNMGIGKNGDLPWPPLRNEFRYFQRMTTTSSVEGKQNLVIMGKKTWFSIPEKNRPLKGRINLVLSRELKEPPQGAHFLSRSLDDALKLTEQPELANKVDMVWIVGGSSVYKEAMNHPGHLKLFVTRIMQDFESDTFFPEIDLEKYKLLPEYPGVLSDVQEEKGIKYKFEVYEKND
# assay comment: Elisa assay of human DHFR enzyme
# Format: biochemical
# test context: conc 10 uM
Grouping by measured inhibition at 10 µM is done with the following cut points: lower band (below 60%), central band (60% to below 80%), upper band (80% or more)

Data request: Just checking, what class would you give O=C(O)CCC(NC(=O)c1ccc(Nc2ncnc3c2cnn3-c2ccccc2)cc1)C(=O)O (centres unmarked) [Compound 7e] here?
Data returned: central band

Data request: Just checking, what class would you give O=C(O)CNC(=O)c1ccc(Nc2ncnc3c2cnn3-c2ccccc2)cc1 [Compound 7a] here?
Data returned: lower band

Data request: Just checking, what class would you give CC(NC(=O)c1ccc(Nc2ncnc3c2cnn3-c2ccccc2)cc1)C(=O)O (centres unmarked) [Compound 7b] here?
Data returned: lower band

Data request: Just checking, what class would you give O=C(NC(Cc1ccc(O)cc1)C(=O)O)c1ccc(Nc2ncnc3c2cnn3-c2ccccc2)cc1 (centres unmarked) [Compound 7m] here?
Data returned: central band

---
Data request: Just checking, what class would you give O=C(NC(CS)C(=O)O)c1ccc(Nc2ncnc3c2cnn3-c2ccccc2)cc1 (centres unmarked) [Compound 7g] here?
Data returned: central band

Data request: Just checking, what class would you give CSCCC(NC(=O)c1ccc(Nc2ncnc3c2cnn3-c2ccccc2)cc1)C(=O)O (centres unmarked) [Compound 7h] here?
Data returned: lower band

Data request: Just checking, what class would you give CCC(C)C(NC(=O)c1ccc(Nc2ncnc3c2cnn3-c2ccccc2)cc1)C(=O)O (centres unmarked) [Compound 7d] here?
Data returned: upper band

Data request: Just checking, what class would you give N=C(N)NCCCC(NC(=O)c1ccc(Nc2ncnc3c2cnn3-c2ccccc2)cc1)C(=O)O (centres unmarked) [Compound 7f] here?
Data returned: upper band
